Field: binding signal. Provide a value for each of the binders that follow.
Biological target: T1, RBFOX1 RRM RbFoxmut (Fox-RRM*) (Homo sapiens, UniProt Q9NWB1 109-208, R118D;E147R;N151S;E152T)
T1 sequence: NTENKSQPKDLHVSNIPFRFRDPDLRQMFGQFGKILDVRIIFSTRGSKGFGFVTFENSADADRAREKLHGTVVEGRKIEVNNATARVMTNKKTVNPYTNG
Test: EMSA; HiTS-Eq, 1 nM pool, 10 min; buffer printed only for the single-RNA assays: 10 mM Tris pH 7.5, 150 mM NaCl, 3.4 mM EDTA, 0.001% NP-40, 30 C
Settings: tags: His6 N-terminal (pET28a); label: 5' 32P
The full ranking holds about 16,000 sequences; the median of “ka relative to ugcaugu” is about 0.096, and the highest 2% start at about 0.35. The list comes from a sample in which the highest values are over-represented; it also holds close analogues and randomly drawn sequences.

Consider the following items and state reported binding signal for each.
1. GAAUGCA (DNA:RNA) RNA: GGGAGACCGGAAUUCAGAUUGUCCGAAUGCAUUAAAUCCCGUCGUAGCCACCA DNA 1: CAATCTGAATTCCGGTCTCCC DNA 2: TGGTGGCTACGACGGGATT
2. GCAUCCC (DNA:RNA) RNA: GGGAGACCGGAAUUCAGAUUGUCCGCAUCCCUUAAAUCCCGUCGUAGCCACCA DNA 1: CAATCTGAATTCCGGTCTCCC DNA 2: TGGTGGCTACGACGGGATT

Result:
1: 1.03 KA relative to UGCAUGU; 2: 0.142 KA relative to UGCAUGU

Working through the 2 binders below one at a time, give binding signal for each.
1. CCAUGCC (DNA:RNA) RNA: GGGAGACCGGAAUUCAGAUUGUCCCCAUGCCUUAAAUCCCGUCGUAGCCACCA DNA 1: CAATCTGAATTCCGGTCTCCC DNA 2: TGGTGGCTACGACGGGATT
2. GCCUGCC (DNA:RNA) RNA: GGGAGACCGGAAUUCAGAUUGUCCGCCUGCCUUAAAUCCCGUCGUAGCCACCA DNA 1: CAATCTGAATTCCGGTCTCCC DNA 2: TGGTGGCTACGACGGGATT

Result:
1. 0.19 KA relative to UGCAUGU
2. 0.176 KA relative to UGCAUGU
